biological target: T1, Cyno CD47 ECD protein, His-tagged, monomer (cyno); assay: ProteOn SPR; mAb captured, ECD monomer as analyte
T1 construct: extracellular domain; also called cynomolgus CD47
TEST READOUT: pKd
The read-out pKd is expressed as -log10 of concentration in moles per litre.

Ask | Give a short answer stating reported pKd for C47B214 (antibody, V domains shown, human IgG2sigma/kappa) VH: EVQLVQSGAEVKKPGESLKISCKGSGYSFDDSWIGWVRQMPGKGLEWMGIIYPGDSDTRYSPSFQGQVTISADKSISTAYLQWSSLKASDTAVYYCARVGRFASHQLDYWGQGTLVTVSS VL: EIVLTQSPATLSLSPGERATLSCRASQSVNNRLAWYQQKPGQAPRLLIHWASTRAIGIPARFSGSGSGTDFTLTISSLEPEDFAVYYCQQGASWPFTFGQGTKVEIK .
Reply | 8.85
